tested on: Saccharomyces cerevisiae; assay: protein stability index of tFT-peptide fusion (C-terminal peptide) (PSI (0-1 scale)); higher = more stable (slower turnover); conditions: genetic background: doa10 deletion; temperature: 30 C
READOUT_TYPE: protein stability index
Lab note: write the figure by itself, no unit.

MACROMOLECULE_SEQUENCE: AFRSPLLMLLVL
ASSAYED_SYSTEM: Saccharomyces cerevisiae
protein stability index: 0.32
--
MACROMOLECULE_SEQUENCE: LHLSSFVILLEL
ASSAYED_SYSTEM: Saccharomyces cerevisiae
protein stability index: 0.478
--
MACROMOLECULE_SEQUENCE: RGFIFFALWSFC
ASSAYED_SYSTEM: Saccharomyces cerevisiae
protein stability index: 0.334

Using the record for "VMLFYVGSGVVS" , report its protein stability index.
0.545

Also, "WLFFVVLPVKAF" please.
0.104

Moving on to "MLIAISASAARF"
0.45

What do we get for "PSSPTPPPSSSP" ?
0.679

Lookup "VSFFCLICRVYP"
0.298

What do you get for "GRGLRVCWVWSG" ?
0.147

Next record, please: "FSFEGVLVPLLV"
0.249

###

Form field: protein stability index (one value per entry).
system: Saccharomyces cerevisiae; test: protein stability index of tFT-peptide fusion (C-terminal peptide) (PSI (0-1 scale)); higher = more stable (slower turnover); conditions: genetic background: wild type; temperature: 30 C
In your answer, state the number alone without any accompanying words.

Query (sequence): "LVAGFVFIFFYR" ; field requested: protein stability index
0.319

And what about the sequence "PLATSLIGLFVV" ?
0.298

###

tested on: Saccharomyces cerevisiae; assay: protein stability index of tFT-peptide fusion (C-terminal peptide) (PSI (0-1 scale)); higher = more stable (slower turnover); settings: genetic background: das1 deletion; temperature: 37 C
Rule: MET for protein stability index not less than 0.6, NOT MET for anything less.

MACROMOLECULE_SEQUENCE: KGSKGELGVHVG
CLASS_LABEL: MET

Check if protein stability index >= 0.6 (inclusive). Item: "PSSPTPPPSSSP"
MET

Check "IFSGCRIALSVF" too.
NOT MET

Request: "QPTPQSALAKHQ"
MET

Also check "VARWVYALGLLC"
MET

Note, next up: "PRPETCHAVAVR"
NOT MET

Next sequence up: "WLVCAGWVVLSC"
NOT MET

Also "SVPIAFYLLFFQ" ?
MET

###

system: Saccharomyces cerevisiae; test: protein stability index of tFT-peptide fusion (C-terminal peptide) (PSI (0-1 scale)); higher = more stable (slower turnover); settings: genetic background: wild type; temperature: 37 C
READOUT_TYPE: protein stability index
Note: the reply should be a number with no unit written.

The cases that follow already have their protein stability index on record.
MACROMOLECULE_SEQUENCE: RNDCAYHVLQIV
ASSAYED_SYSTEM: Saccharomyces cerevisiae
QUANTITATIVE_RESULT: 0.381

MACROMOLECULE_SEQUENCE: TCPFTIHRLKVG
ASSAYED_SYSTEM: Saccharomyces cerevisiae
QUANTITATIVE_RESULT: 0.218

MACROMOLECULE_SEQUENCE: AELLMLRIFFLF
ASSAYED_SYSTEM: Saccharomyces cerevisiae
QUANTITATIVE_RESULT: 0.0944

MACROMOLECULE_SEQUENCE: WLVCAGWVVLSC
ASSAYED_SYSTEM: Saccharomyces cerevisiae
QUANTITATIVE_RESULT: 0.222

MACROMOLECULE_SEQUENCE: FSFFLYFFLLLF
ASSAYED_SYSTEM: Saccharomyces cerevisiae
QUANTITATIVE_RESULT: 0.389

MACROMOLECULE_SEQUENCE: AWPGRLWYFWLA
ASSAYED_SYSTEM: Saccharomyces cerevisiae
QUANTITATIVE_RESULT: 0.411

MACROMOLECULE_SEQUENCE: PLATSLIGLFVV
ASSAYED_SYSTEM: Saccharomyces cerevisiae
QUANTITATIVE_RESULT: 0.467

MACROMOLECULE_SEQUENCE: WSLPPLLSPLYF
ASSAYED_SYSTEM: Saccharomyces cerevisiae
QUANTITATIVE_RESULT: 0.72

MACROMOLECULE_SEQUENCE: SVFWCFHVLFWS
ASSAYED_SYSTEM: Saccharomyces cerevisiae
QUANTITATIVE_RESULT: 0.493

MACROMOLECULE_SEQUENCE: YGWILQLPCFVI
ASSAYED_SYSTEM: Saccharomyces cerevisiae;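 further: PSI is a weighted mean of sequencing reads over stability bins, variants kept only with over 10 reads, mCherry proximal and sfGFP distal, peptide attached via GGGS linker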
QUANTITATIVE_RESULT: 0.315

Would you mind telling me what protein stability index value was observed for "CFVLVVCIPVMV" ?
0.328

Queued: "LRFYLLTPPSPA"
0.586

"CFFFPCFSFRFL" ?
0.453

Also check "RIAIRSAVICAS"
0.154

Next entry: "IFVFVSFPSCVL"
0.568

Repeat with "LFLIFFSFLFLC"
0.141

Proceed to "KGSKGELGVHVG"
0.689

Another sequence to look at: "QCRLPRPPLSLP"
0.693

And the next one, "FELSVSVFQSVV" ?
0.318

Same question, "ILFWSLLVSTIR" this time
0.266

Try this sequence too: "LVLVVFCPLWFW"
0.56

One more sequence: "RIRLYWVLRRLG"
0.129

Let us now turn to "FYIRFYVYSWLF"
0.46

Moving on to the next sequence: "RRGGNIVWYCLV"
0.24

Cool, now "GGICVVAYWRLA"
0.173

And "EGREGGGRGEVL" ?
0.472

Thanks! And "VLLCGRMVVVEW" ?
0.132

// same read-out, input: "RSFSKRSFMFLC"
0.227

Cool, now "IRHALHFRVVAV"
0.529

Taken from the supplement of paper PMC10724198.
